Catalogue of protein stability index readings, one per entry.
B1: RHOBTB2 (parent)
chain: NQEITKAFHVRRTNRVKECLAKGT

Variants of: B1
MEASUREMENT NOTES: protein stability index of a GFP-peptide fusion (GPS, HEK-293T) (PSI 1-6); higher = more stable;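 also: lentivirally expressed fusions sorted by FACS into six bins by GFP to DsRed ratio, PSI derived from sequencing read proportions per bin multiplied by bin number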
EXPERIMENTAL PARAMETERS: c terminus: a fixed tail appended
REPORTED ENDPOINT: protein stability index

| MUTATION NOTATION | DATA VALUE |
| --- | --- |
| N14A | 4.05 |
| T13Q | 3.93 |
| V10L | 3.08 |
| Q2E | 4.05 |
| V16T | 3.02 |
| E18K | 3.08 |
| E3K | 3.06 |
| K22H | 3.03 |
| E3R | 3.02 |
| T13P | 3.98 |
| L20D | 3.98 |
| T5K | 4.06 |
| N1A | 4.01 |
| N14R | 2.97 |
| R12N | 3.92 |

# credit: the supplement of paper PMC10567573
